targetOfAssay: human P2X7 receptors (Homo sapiens, UniProt Q99572)
Sequence (Q99572 whole entry): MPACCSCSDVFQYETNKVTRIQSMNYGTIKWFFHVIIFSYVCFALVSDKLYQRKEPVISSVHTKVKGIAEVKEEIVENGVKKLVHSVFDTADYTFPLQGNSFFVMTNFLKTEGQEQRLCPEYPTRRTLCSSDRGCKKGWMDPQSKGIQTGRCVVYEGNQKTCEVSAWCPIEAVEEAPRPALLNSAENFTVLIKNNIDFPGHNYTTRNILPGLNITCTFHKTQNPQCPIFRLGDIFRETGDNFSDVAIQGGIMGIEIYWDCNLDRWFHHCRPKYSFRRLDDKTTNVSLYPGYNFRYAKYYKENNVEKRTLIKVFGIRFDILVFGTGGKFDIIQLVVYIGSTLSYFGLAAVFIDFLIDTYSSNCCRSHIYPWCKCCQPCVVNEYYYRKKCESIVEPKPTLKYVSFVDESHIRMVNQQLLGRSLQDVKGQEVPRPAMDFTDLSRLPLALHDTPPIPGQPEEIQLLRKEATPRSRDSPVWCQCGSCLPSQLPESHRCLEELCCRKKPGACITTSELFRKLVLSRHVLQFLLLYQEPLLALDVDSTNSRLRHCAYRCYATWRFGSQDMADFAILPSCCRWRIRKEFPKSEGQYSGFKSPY
assayInfo: P2X7 FLIPR assay
conditionSet: Human P2X7 in HEK293 cells, BzATP 8 μM, Ca2+ mobilization
Method: HEK293 cells stably expressing either human, mouse, or rat P2X7 receptors were plated in 384-well poly-D-lysine-coated black FLIPR plates (Greiner One, Cat #781946) using 1.5% FBS media 24 hours before the assay. Sucrose buffer, pH 7.4 was used for the human-P2X7 assay (5 mM of potassium chloride, 9.6 mM NaH2PO4.2H2O, 25 mM Hepes, 0.5 mM CaCl2, 5 mM glucose, 280 mM sucrose and 1.0 mM probenecid (Sigma, St. Louis, Mo.)). […]
pIC50: −log10 of the molar value.
# pIC50 annotations
reportedMetric: pIC50

O=C(NC[C@@H](c1ccc(Cl)cc1)N1CCOCC1)c1sc(-c2ncccn2)nc1C(F)(F)F    7.05
O=C(NCC(c1ccc(Cl)cc1)N1CCOCC1)c1sc(-c2ncccn2)nc1C(F)(F)F (racemic)    7.49
O=C(NC[C@H](c1ccc(Cl)cc1)N1CCOCC1)c1sc(-c2ncccn2)nc1C(F)(F)F    7.92
